target entity: HKU5-3CL^pro (Bat coronavirus HKU5 (BtCoV) (BtCoV/HKU5/2004), UniProt P0C6W4)
Sequence (P0C6W4 3339-3644 limits assumed): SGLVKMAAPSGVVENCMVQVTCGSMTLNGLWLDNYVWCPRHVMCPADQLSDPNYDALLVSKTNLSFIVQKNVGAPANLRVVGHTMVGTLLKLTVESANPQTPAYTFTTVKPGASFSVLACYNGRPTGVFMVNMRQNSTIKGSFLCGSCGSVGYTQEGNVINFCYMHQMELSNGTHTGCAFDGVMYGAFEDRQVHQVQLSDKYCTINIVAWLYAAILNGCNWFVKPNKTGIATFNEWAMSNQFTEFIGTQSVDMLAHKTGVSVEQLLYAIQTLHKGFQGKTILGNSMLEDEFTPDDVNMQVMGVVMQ
pIC50: −log10 of the molar value.

molecule: CC(C)(C)NC(=O)C(c1cccnc1)N(C(=O)c1c[nH]cn1)c1ccc(C2CCCC2)cc1 (stereo not drawn)
pIC50: 4.72
//
molecule: CC(C)(C)OC(=O)CNC(=O)C(c1ccsc1)N(C(=O)Cn1nnc2ccccc21)c1ccc(NC(=O)C2CC2)cc1 (stereo not drawn)
pIC50: 5.70
//
molecule: CC(C)C(=O)Nc1ccc(N(C(=O)Cn2nnc3ccccc32)C(C(=O)NCc2cccnc2)c2cccc(F)c2)cc1 (stereo not drawn)
pIC50: 5.60
//
molecule: O=C(Nc1ccc(N(C(=O)Cn2nnc3ccccc32)C(C(=O)NC2CCCCC2)c2ccsc2)cc1)C1CC1 (stereo not drawn)
pIC50: 6.22
//
molecule: CC(C)(C)NC(=O)C(c1ccsc1)N(C(=O)Cn1cnc2ccccc21)c1ccc(NC(=O)C2CC2)cc1 (stereo not drawn)
pIC50: 5.01
//
molecule: CC(C)(C)NC(=O)C(c1cccnc1)N(C(=O)c1c[nH]cn1)c1ccc(C2CCC2)cc1 (stereo not drawn)
pIC50: 5.06
